The reported numbers originate from the supplement of paper PMC13380429.

Test system: Vero E6 infected with SARS-CoV-2
Test: inhibition of SARS-CoV-2 cytopathic effect; higher = more antiviral protection, active = above 15
Details: 8.33 nM; 48 h
Quick reference for inhibition of SARS-CoV-2 cytopathic effect among some molecules
endpointLabel: inhibition of SARS-CoV-2 cytopathic effect (%)

>  <molecule>
CN(CCc1ccc(Cl)c(Cl)c1)CCN1CCCC1

>  <readoutNumber>
-0.54

$$$$
>  <molecule>
CC(C(=O)O)c1ccc2c(c1)Cc1ccccc1-2 (centres undefined) [cicloprofen]

>  <readoutNumber>
0.42

$$$$
>  <molecule>
Cc1ccccc1C(C(=O)NC1CCCCC1)N(C(=O)Cn1ccnc1C)c1cccc(F)c1 (centres undefined)

>  <readoutNumber>
-1.8

$$$$
>  <molecule>
COc1ccc2cc([C@H](C)C(=O)O)ccc2c1 [naproxen]

>  <readoutNumber>
3.96

$$$$
>  <molecule>
COc1cc(C)nc(-n2nc(C)cc2OC)n1 [epirizole]

>  <readoutNumber>
3.82

$$$$
>  <molecule>
COC(=O)C1=C(C)N(C)C(C)=C(C(=O)OC)C1c1ccc(C(F)(F)F)cc1

>  <readoutNumber>
-2.17

$$$$
>  <molecule>
O=C(NCNC(=O)NC1C(=O)NC(=O)N1CO)NC1C(=O)NC(=O)N1CO (centres undefined) [imidurea]

>  <readoutNumber>
0.45

$$$$
>  <molecule>
CC(=O)OCC(=O)[C@@]1(O)CC[C@H]2[C@@H]3CCC4=CC(=O)CC[C@]4(C)[C@H]3C(=O)C[C@@]21C [cortisone-acetate]

>  <readoutNumber>
-1.31

$$$$
>  <molecule>
O=C(NC1CCNCC1)[C@@H]1CC[C@@H]2CN1C(=O)N2OS(=O)(=O)O [relebactam]

>  <readoutNumber>
1.87

$$$$
>  <molecule>
Nc1ccc(S(=O)(=O)Nc2ccccn2)cc1 [sulfapyridine]

>  <readoutNumber>
0.08

$$$$
>  <molecule>
Nc1nccc(/C=C/c2ccccc2)n1

>  <readoutNumber>
3.79

$$$$
>  <molecule>
CCC[C@@H]1C[C@@H](C(=O)N[C@@H]([C@H]2O[C@H](SC)[C@H](O)[C@@H](O)[C@H]2O)[C@H](C)Cl)N(C)C1

>  <readoutNumber>
-0.55

$$$$
>  <molecule>
CCN1CCN(c2ccc(C(C)(C)NC(=O)c3cc4[nH]c5ccccc5c(=O)c4cc3F)cn2)CC1

>  <readoutNumber>
-0.52

$$$$
>  <molecule>
OC[C@@H](O)[C@@H](O)[C@@H](O)CO [ribitol]

>  <readoutNumber>
3.83

$$$$
>  <molecule>
CC[C@@H]([C@H](C)O)n1ncn(-c2ccc(N3CCN(c4ccc(OC[C@@H]5CO[C@@](Cn6cncn6)(c6ccc(F)cc6F)C5)cc4)CC3)cc2)c1=O [posaconazole]

>  <readoutNumber>
0.51

$$$$
>  <molecule>
O=C(OCC(O)CO)c1ccccc1Nc1ccnc2c(C(F)(F)F)cccc12 (centres undefined) [floctafenine]

>  <readoutNumber>
6.76

$$$$
>  <molecule>
O=C(O)c1ccc2c(c1)C(=O)N(c1cccc(Oc3ccc([N+](=O)[O-])cc3)c1)C2=O

>  <readoutNumber>
0.95

$$$$
>  <molecule>
COc1c2ccoc2cc2oc(=O)ccc12 [bergapten]

>  <readoutNumber>
-0.91

$$$$
>  <molecule>
C[C@H](N[C@@H](CCc1ccccc1)C(=O)O)C(=O)N1CCC[C@H]1C(=O)O [enalaprilat]

>  <readoutNumber>
1.11

$$$$
